- System: MDA-MB-435
- TEST: NCI tumour cell line growth inhibition, 48 h
Label rule, in plain words: TGI of 30 µM and up is fulfilled, under 30 µM is not fulfilled.

{"columns": ["COMPOUND", "ASSAYED TARGET", "DISCRETE LABEL"],
 "data": [
  ["CCN(CCNc1ccc(C)c2sc3ccccc3c(=O)c12)CC(C)(C)O", "MDA-MB-435", "not fulfilled"],
  ["Cc1cc(-c2nnc3n2CCCCC3)c(C)n1-c1ccc(Cl)c(Cl)c1", "MDA-MB-435", "not fulfilled"],
  ["COc1cc(S(C)(=O)=O)ccc1Nc1nc2ccc(-c3ccc(NC(=O)[C@H](C)c4ccc(F)cc4)cc3)cn2n1", "MDA-MB-435", "fulfilled"],
  ["Cc1ccc(S(=O)(=O)c2c(O)c3ccccc3n(C)c2=O)cc1", "MDA-MB-435", "fulfilled"],
  ["CC1(C)Oc2ccc(NC(=O)CCC(N)C(=O)O)cc2O1 (stereo unspecified)", "MDA-MB-435", "fulfilled"],
  ["Cc1sc2ccccc2[n+]1CCC(=O)O", "MDA-MB-435", "fulfilled"],
  ["COC(=O)CCC1=C(C)/C(=C/c2[nH]c(-c3ccc[nH]3)cc2OC)N=C1C", "MDA-MB-435", "not fulfilled"],
  ["COc1cc(Cn2c(-c3nonc3N)nc3ccccc32)ccc1C", "MDA-MB-435", "not fulfilled"],
  ["CC(C)Oc1cc(O)c2c(c1)OCC=C2CCC(=O)O", "MDA-MB-435", "fulfilled"],
  ["COc1ccc(Cn2c(Cl)c(/C=C3/C(=O)Nc4ccccc43)c3cc(OC)c(C)cc32)cc1", "MDA-MB-435", "not fulfilled"],
  ["O=C1c2cccc3cccc(c23)C(=O)N1CCCNOCCONCCCN1C(=O)c2cccc3cccc(c23)C1=O", "MDA-MB-435", "fulfilled"],
  ["COC(=O)C1=C(C(=O)OC)SC(=C(Cl)C(=S)Sc2ccccc2N)S1", "MDA-MB-435", "fulfilled"],
  ["O=C1/C(=C2\\Sc3c(ccc(Cl)c3Cl)C2=O)Sc2c1ccc(Cl)c2Cl", "MDA-MB-435", "fulfilled"],
  ["COc1ccc(-c2cn[nH]c2-c2cc(OC)c3c(c2)OCCO3)cc1", "MDA-MB-435", "not fulfilled"],
  ["COC(=O)C1(Cc2ccccc2)Cc2ccccc2C1", "MDA-MB-435", "fulfilled"],
  ["Oc1ccccc1-c1nc2c3ccccc3c3ccccc3c2[nH]1", "MDA-MB-435", "not fulfilled"],
  ["CN(C)CCCOCCn1c2c(c3ccccc31)CCCC2", "MDA-MB-435", "fulfilled"],
  ["CC(C)[C@H]1C(=O)N[C@@H](CCCN=C(N)N)C(=O)NCC(=O)N[C@@H](CC(=O)O)C(=O)N[C@H](Cc2ccccc2)C(=O)N1C", "MDA-MB-435", "not fulfilled"]
]}

###

- Tested on: CCRF-CEM leukemia
- TEST: NCI tumour cell line growth inhibition, 48 h
Entries and their TGI values follow.

{"columns": ["COMPOUND", "TGI"],
 "data": [
  ["CC(C)Oc1cc(O)c2c(c1)OCC=C2CCC(=O)O", "43.3 µM"],
  ["Clc1ccc(N=c2oc3ccccc3cc2-c2nc3ccccc3[nH]2)c(Cl)c1", "> 100 µM"],
  ["COc1ccc(Cn2c(Cl)c(/C=C3/C(=O)Nc4ccccc43)c3cc(OC)c(C)cc32)cc1", "> 100 µM"],
  ["CCOC(=O)C(/C=N\\C(=S)Nc1ccc(OCC)cc1)=C(/O)c1ccccc1", "> 100 µM"],
  ["CC(=O)Nc1ccc(S(=O)(=O)NNC(=O)c2cccnc2Nc2ccc(Cl)cc2)cc1", "> 100 µM"],
  ["Cc1c2ccc(N(C)c3ccnc(Nc4cccc(S(N)(=O)=O)c4)n3)cc2nn1C", "> 25 µM"],
  ["Cc1nn(-c2ccccc2)c(-c2ccccc2[N+](=O)[O-])c1CC#N", "> 100 µM"],
  ["CC1(C)C2CCC3(C2)CS(=O)(=O)N2OC231 (stereo not drawn)", "> 100 µM"],
  ["CC(C)[C@H]1C(=O)N[C@@H](CCCN=C(N)N)C(=O)NCC(=O)N[C@@H](CC(=O)O)C(=O)N[C@H](Cc2ccccc2)C(=O)N1C", "> 100 µM"],
  ["c1nnc(NCNc2nncs2)s1", "> 100 µM"],
  ["CSC1=NS(=O)(=O)c2cc(C(=O)NN(C)C(=O)c3cc4c(cc3Cl)SC(SC)=NS4(=O)=O)c(Cl)cc2S1", "> 10 µM"],
  ["Nc1nc(CCC(=O)Nc2cccc(C(F)(F)F)c2)cc(-c2ccc3ccccc3c2)n1", "> 100 µM"],
  ["O=[N+]([O-])c1ccc2c(c1)[O][Sn][O]2", "> 150 µg/mL"]
]}

###

- System: BT-549 breast
- TEST: NCI tumour cell line growth inhibition, 48 h
Entries and their GI50 values follow.
MEASURED QUANTITY: GI50

{"columns": ["MOLECULE", "VALUE MEASURED"],
 "data": [
  ["C/C(=N\\NC(N)=S)c1nc2ccc(Cl)cc2[nH]1", "3.57 µM"],
  ["NC(=O)c1ccc(C2C3=C(CCCC3=O)OC3=C2C(=O)c2ccccc2C3=O)cc1 (centres undefined)", "0.642 µM"],
  ["N#C[C@@H]1C(n2ccc(N)nc2=O)O[C@H](CO)[C@H]1O (some centres undefined)", "> 100 µM"],
  ["CCCCCCN(CCCCCC)CC(O)c1ccc2c3c(cccc13)CC2 (centres undefined)", "13.5 µM"]
]}

###

Entries and their TGI values follow.
- Test system: ACHN renal
- TEST: NCI tumour cell line growth inhibition, 48 h

{"columns": ["COMPOUND", "TGI"],
 "data": [
  ["c1nnc(NCNc2nncs2)s1", "> 100 µM"],
  ["CC(=O)N1CCN(C23OC4(N5CCN(C(C)=O)CC5)C5C6CC(C7C6C4C72)C53)CC1 (configuration not stated)", "> 100 µM"],
  ["COc1cc2c(/C=C3/C(=O)N(c4ccccc4)c4ccccc43)c(Cl)[nH]c2cc1C", "> 49.2 µM"],
  ["CC(C)(C)OC[C@H](O)CC#N", "> 100 µM"],
  ["CCC(c1cccc(O)c1)C(CC)c1cccc(O)c1 (configuration not stated)", "18.9 µM"],
  ["CC(=O)c1cc2ccccc2n(O)c1=N", "> 100 µM"],
  ["C[C-](O)O.O/C(=C\\[C-](O)c1ccccc1)c1ccccc1.O/C(=C\\[C-](O)c1ccccc1)c1ccccc1.[Nd+3] (configuration not stated)", "> 100 µM"],
  ["Cn1cnc2c(sc3nc4ccccc4n32)c1=N", "> 100 µM"],
  ["CN(Cc1cnc2nc(N)nc(N)c2n1)c1ccc(C(=O)NC(CCC(=O)NC(P(=O)(O)O)P(=O)(O)O)C(=O)O)cc1 (configuration not stated)", "> 100 µM"],
  ["COc1ccc(Cn2c(Cl)c(/C=C3/C(=O)Nc4ccccc43)c3cc(OC)c(C)cc32)cc1", "> 100 µM"],
  ["O=c1[nH]c(Nc2cccc(Cl)c2)nc2nc[nH]c12", "> 100 µM"],
  ["S=C(S)NCC1CCC(CNC(=S)S)CC1 (configuration not stated)", "39.2 µM"],
  ["Cc1ccc(-c2n[nH]c(=O)[nH]2)cc1[N+](=O)[O-]", "> 100 µM"],
  ["COc1cc(C2SCC(=O)N2c2ccc(Oc3ccc(Cl)cc3)c(Cl)c2)cc(OC)c1OC (configuration not stated)", "> 100 µM"],
  ["OC12CC/C(=N/OCc3ccccc3)CC1c1ccccc12 (configuration not stated)", "> 100 µM"],
  ["CCOC(=O)COS(=O)(=O)C(F)(F)F", "> 100 µM"],
  ["Nc1ccc2[nH]c(C(=O)N3CC(CCl)c4c3cc(N)c3ccccc43)cc2c1 (configuration not stated)", "0.0103 µM"],
  ["CCN1CSC(=S)N(CC)C1", "> 100 µM"],
  ["COc1cc(Br)c(C=Nc2cccc3ccc(OS(=O)(=O)c4cccc([N+](=O)[O-])c4)cc23)cc1OC", "> 100 µM"],
  ["C[C@]12CC[C@@H]3c4ccc(OC(=O)c5ccccc5)cc4CC[C@H]3[C@@H]1CC[C@@H]2Oc1c2ccccc2nc2ccccc12", "> 50 µM"],
  ["Cc1cc(-c2nnc3n2CCCCC3)c(C)n1-c1ccc(Cl)c(Cl)c1", "> 100 µM"],
  ["Cc1cc(N/N=C/c2nc(-c3ccc(Cl)cc3)oc2C)c2cc(Cl)ccc2n1", "3.78 µM"]
]}

###

- Tested on: MALME-3M melanoma
- TEST: NCI tumour cell line growth inhibition, 48 h
MEASURED QUANTITY: TGI

{"columns": ["COMPOUND", "ASSAYED TARGET", "MEASURED QUANTITY", "VALUE MEASURED"],
 "data": [
  ["COc1cc(/C=C2/N=C(c3ccccc3)N(C3=NNC4(C(=O)N3)c3ccccc3-c3ccccc34)NC2=O)ccc1O", "MALME-3M melanoma", "TGI", "57 µg/mL"],
  ["CCOc1ccccc1NC(=O)CCc1nc(=S)[nH][nH]1", "MALME-3M melanoma", "TGI", "> 100 µM"],
  ["c1cc(CNC2C3CCC(C3)C2c2c[nH]c3ccccc23)cc(CNC2C3CCC(C3)C2c2c[nH]c3ccccc23)c1 (stereo unspecified)", "MALME-3M melanoma", "TGI", "3.45 µM"],
  ["Cc1nn(-c2ccccc2)c(-c2ccccc2[N+](=O)[O-])c1CC#N", "MALME-3M melanoma", "TGI", "> 100 µM"],
  ["O=C(NCc1ccc(Cl)cc1)c1cc2sccc2nc1C(F)(F)F", "MALME-3M melanoma", "TGI", "> 100 µM"],
  ["NC(N)=NS(=O)(=O)c1ccc(NC(=O)c2ccc3nc4ccccc4c(Nc4ccc(S(N)(=O)=O)cc4)c3c2)cc1", "MALME-3M melanoma", "TGI", "> 100 µM"],
  ["CC1CCN(CC(=O)N2c3ccccc3Sc3cc4ccccc4cc32)CC1", "MALME-3M melanoma", "TGI", "> 100 µM"],
  ["CCc1ccc2c(c1)CC1(C2)Cc2cc3c(cc2C1)C(=O)CC3 (stereo unspecified)", "MALME-3M melanoma", "TGI", "57.1 µM"],
  ["Cc1ccc2c(c1)C(c1cccc3ccccc13)OC2=O (stereo unspecified)", "MALME-3M melanoma", "TGI", "> 100 µM"],
  ["CCOC(=O)COS(=O)(=O)C(F)(F)F", "MALME-3M melanoma", "TGI", "> 100 µM"],
  ["O=C1CCCN1CC#CCN1CCCC1", "MALME-3M melanoma", "TGI", "> 100 µM"],
  ["Cc1cc(-c2nnc3n2CCCCC3)c(C)n1-c1ccc(Cl)c(Cl)c1", "MALME-3M melanoma", "TGI", "30.4 µM"],
  ["COc1cc(Br)c(C=Nc2cccc3ccc(OS(=O)(=O)c4cccc([N+](=O)[O-])c4)cc23)cc1OC", "MALME-3M melanoma", "TGI", "> 100 µM"],
  ["CC(=O)c1cc2ccccc2n(O)c1=N", "MALME-3M melanoma", "TGI", "> 100 µM"],
  ["CC(=Nc1ccncc1)C(C)=Nc1ccncc1", "MALME-3M melanoma", "TGI", "37.3 µM"],
  ["Nc1cc(N2CCCC2)nc(=O)n1Cc1ccccc1", "MALME-3M melanoma", "TGI", "> 100 µM"],
  ["Oc1ccc(CCc2cc(O)cc(O)c2)cc1", "MALME-3M melanoma", "TGI", "> 100 µM"],
  ["CC(C)CNC(=O)Cn1c(-c2ccccc2)cc2ccccc21", "MALME-3M melanoma", "TGI", "> 100 µM"],
  ["O=C1CCC(O)=C1O", "MALME-3M melanoma", "TGI", "> 100 µM"],
  ["CN=C1SC(=Nc2ccc(N(C)C)cc2)N1C", "MALME-3M melanoma", "TGI", "> 100 µM"],
  ["FCc1ncc(-c2ccc(C(F)(F)F)cc2)c(NC2CCCCCC2)n1", "MALME-3M melanoma", "TGI", "> 10 µM"]
]}
